# SYSTEM: Adenosine receptor A1 (Homo sapiens)
# PROCEDURE_SUMMARY: Agonist activity at human A1AR expressed in HEK293T/17 cells assessed as inhibition of isoproterenol-induced cAMP accumulation incubated for 10 mins by luciferase reporter assay
# Assay type: functional, cell-based, HEK-293T
One threshold, 500 nM, splits the recorded EC50 values: lower ones are Met, equal or higher ones are Not met.

// below: answered compounds
COMPOUND: COP(=O)(OC)OCC(Cc1ccccc1)Nc1nc(Cl)nc2c1ncn2[C@@H]1O[C@H](CO)[C@@H](O)[C@H]1O (mixture of isomers)
SYSTEM: Adenosine receptor A1 (Homo sapiens)
CLASS_LABEL: Not met

COMPOUND: COP(=O)(OC)OC[C@H]1O[C@@H](n2cnc3c(NC4CCCC4)ncnc32)[C@H](O)[C@@H]1O
SYSTEM: Adenosine receptor A1 (Homo sapiens)
CLASS_LABEL: Not met

COMPOUND: CCOC(=O)CNP(=O)(NCC(=O)OCC)OC[C@H]1O[C@@H](n2cnc3c(NC4CCCC4)nc(Cl)nc32)[C@H](O)[C@@H]1O
SYSTEM: Adenosine receptor A1 (Homo sapiens)
CLASS_LABEL: Not met

COMPOUND: O=P(O)(O)OC[C@H]1O[C@@H](n2cnc3c(NC4CCCC4)nc(Cl)nc32)[C@H](O)[C@@H]1O
SYSTEM: Adenosine receptor A1 (Homo sapiens)
CLASS_LABEL: Met

Does OCC(Cc1ccccc1)Nc1nc(Cl)nc2c1ncn2[C@@H]1O[C@H](CO)[C@@H](O)[C@H]1O (mixture of isomers) have EC50 strictly under 500 nM?
Not met

###

# SYSTEM: Adenosine receptor A1 (Homo sapiens)
# Sequence (P30542 whole entry): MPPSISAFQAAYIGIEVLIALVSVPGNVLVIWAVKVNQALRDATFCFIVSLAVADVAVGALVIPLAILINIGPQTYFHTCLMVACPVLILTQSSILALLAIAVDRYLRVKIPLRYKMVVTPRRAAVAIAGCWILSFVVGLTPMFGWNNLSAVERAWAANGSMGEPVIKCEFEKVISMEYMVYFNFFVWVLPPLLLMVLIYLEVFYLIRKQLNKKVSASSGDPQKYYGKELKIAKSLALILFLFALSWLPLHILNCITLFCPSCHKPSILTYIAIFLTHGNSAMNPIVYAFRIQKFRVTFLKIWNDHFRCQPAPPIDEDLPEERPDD
# PROCEDURE_SUMMARY: Agonist activity at human A1AR assessed as induction of Ca2+ ion mobilization by orthogonal functional assay
READOUT_LABEL: pEC50
# pEC50 is unitless: minus log10 of the molar concentration; print number only

MOLECULAR_STRING: COP(=O)(OC)OC[C@H]1O[C@@H](n2cnc3c(NC4CCCC4)nc(Cl)nc32)[C@H](O)[C@@H]1O
pEC50: 6.28

We next turn to a different compound, shown below.
Provide measured pEC50 value, entry: "O=P(O)(O)OC[C@H]1O[C@@H](n2cnc3c(NC4CCCC4)nc(Cl)nc32)[C@H](O)[C@@H]1O"
7.68
